# System: A2780 cells (ovarian cancer line)
# method: Cell proliferation/viability assay (CellTiter-Blue) on A2780 cells
# Type: cell-based
# assayContext: Homo sapiens, at 72 hours
recordedMetric: pIC50
Value format note: pIC50 is -log10 of concentration (mol/L); just state the number.

Entry under review: Cc1ccc2c3c(ccc2c1)C(=O)c1c(ccc2c1NC1(C)CC2O[C@@H](C)[C@@H]1O)C3=O (some centres unmarked) . Reported pIC50? 5.01

# pIC50 lookup, item COc1cccc2c1C(=O)c1c(O)c3c(c(O)c1C2=O)C[C@@](O)(C(=O)CO)C[C@@H]3O[C@H]1C[C@H](N)[C@H](O)[C@H](C)O1 [doxorubicin, reference compound] 7.22
